Provenance of the data: patent US20240052052A1

Reported EC50 values for the following binders.
Molecular target: T1, human CD24 (human, UniProt P25063 27-59, heavily glycosylated, GPI-anchored (as described in the background))
T1 construct: whole, on cells; Target of all cell-based FACS assays; also called hCD24; Cluster of differentiation 24
T1 chain (looked up): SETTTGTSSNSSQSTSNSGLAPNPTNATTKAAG
Test: FACS, A549 cells
OBSERVABLE: EC50 (nM)

>>> result("110D4G4 (antibody, V domains shown, mouse monoclonal antibody; also called mAb-110D4G4) VH: EVQLQQSGPGLVKPGASVKISCRASGYLFTGYYMNWVKQSPEKSLEWIGEINPNTGDPRYDQKFKAKATLTVDRSSSTAYMHLKSLTSEDSAVYFCARRDYGTSLDYWGQGTTLTVTS VL: DVQITQSPSYLAASPGETITINCRASKSISKYLAWYQEKPGKTNKLLIYSGSTLQSGIPSRFSGSGSGSDFTLTISSLEPEDFAMYYCQQHNEYPLTFGAGTKLELK")
2.72
>>> result("58F10-1F6 (antibody, V domains shown, mouse monoclonal antibody) VH: EVQLRQSGPELVKPGAAVKISCKASGYSFTGYHMNWVKQSPEKSLEWIGEINPITSGITYNQIFKAKATLTVDKSSSTAYLQLKSLTSEDSAVYYCTRRDYGTSLDYWGQGTTLTVSS VL: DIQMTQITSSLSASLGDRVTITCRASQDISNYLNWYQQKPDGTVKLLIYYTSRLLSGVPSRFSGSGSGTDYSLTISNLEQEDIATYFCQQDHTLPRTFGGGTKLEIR")
12.6
>>> result("56A7E3 (antibody, V domains shown, mouse monoclonal antibody) VH: EVQLQQSGPELVKPGASVKIPCKASGYTFTAYNMDWVKQSHGMSLEWIGDINPINGGTIYNQNFEGKATLTVDKSSSTAYLELRSLTSEDTAVYYCARRGSYYYGSSHYALDFWGQGTSVSVSS VL: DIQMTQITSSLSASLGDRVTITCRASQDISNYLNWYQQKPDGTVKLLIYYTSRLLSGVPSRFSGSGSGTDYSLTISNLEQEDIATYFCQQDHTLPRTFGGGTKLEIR")
92.4
